Measured cytotoxicity at 10 µM, listed per entry for reference.
# assay_procedure: Toxicity liver stage against HepG2, at 10uM
# Format: cell-based
# Parameters: test concentration 10 uM, cell line HepG2-A16-CD81EGFP
# condition: human, HepG2-A16-CD81EGFP cells; read-out: INHIBITION
Report as a plain number; the unit % is understood.

- compound: "Cc1cccc2nc(C(=O)N3CCC(Nc4cccnn4)CC3)cn12"
  units_of_measure: "%"
  test_value: -0.77
- compound: "CN(CC(N)=O)C(=O)C1Cc2cc(Cl)ccc2O1 (stereo unspecified)"
  units_of_measure: "%"
  test_value: 2.93
- compound: "Cc1noc(C)c1CNCc1nn(-c2ccccc2)c2c1CCC2"
  units_of_measure: "%"
  test_value: 1.83
- compound: "CC(=O)N[C@@H]1CN(S(=O)(=O)Cc2ccccc2)C[C@H]1C(C)C"
  units_of_measure: "%"
  test_value: -5.61
- compound: "Cc1nn(-c2ccccc2)cc1C(=O)N1CCCC1c1cnn(C)c1 (stereo unspecified)"
  units_of_measure: "%"
  test_value: -1.86
- compound: "COc1c(C2CCCN2C(=O)c2scnc2C)c(C)nn1C (stereo unspecified)"
  units_of_measure: "%"
  test_value: -1.49
- compound: "CSc1ccccc1C(=O)N(C)Cc1nncn1C(C)C"
  units_of_measure: "%"
  test_value: 3.92
- compound: "O=C1CC(c2ccncc2)c2c(c(C(=O)O)cn2-c2ccc(F)cc2)N1 (stereo unspecified)"
  units_of_measure: "%"
  test_value: 10.1
- compound: "Cc1cccc(N2CCN(C(=O)CN3CCC(C(N)=O)CC3)CC2)c1"
  units_of_measure: "%"
  test_value: 4.52
- compound: "Cc1cc(C2CCC2)nc(N(C)CCc2ccccn2)n1"
  units_of_measure: "%"
  test_value: -3.09

Entry under review: CCN(Cc1noc(CC(C)C)n1)C[C@]1(O)CCCN2CCCC[C@@H]21 . Reported cytotoxicity at 10 µM?
-6.91

Requested field: cytotoxicity at 10 µM. Item: CCC(O)Cn1nc(-c2ccc(C(=O)O)cc2)cc1-c1cccc(F)c1 (stereo unspecified)
8.17

Look up cytotoxicity at 10 µM: O=C(Cc1ccc(F)cc1)NCCNS(=O)(=O)c1ccc(F)c(F)c1
-6.7

Consider the compound shown here: CC(C)n1cc(S(=O)(=O)N2CCCCCC2)cn1 What is its recorded cytotoxicity at 10 µM?
10

Consider the compound O=C(Nc1ccc(F)cc1)N1CCN(Cc2noc(C3CC3)n2)CC1 and give its measured cytotoxicity at 10 µM.
-18.1

Which cytotoxicity at 10 µM value is on record for O=C(Cc1ccccn1)N1CCC2(CC1)CC(Oc1ccccn1)CO2 (stereo unspecified) ?
-0.0273

====

# assay_procedure: Toxicity liver stage against HepG2, at 10uM
# Assay type: cell-based
# Set-up: test concentration 10 uM, cell line HepG2-A16-CD81EGFP
# condition: human, HepG2-A16-CD81EGFP cells; read-out: INHIBITION
measurement_type: cytotoxicity at 10 µM (%)
Just the number please, in %, no unit attached.

Example entries and their recorded answers appear below.
- molecule: "COc1cc(CNc2nc(N3CCOCC3)ns2)cc(OC)c1OC"
  units_of_measure: "%"
  cytotoxicity at 10 µM: -5.23
- molecule: "CCc1c(C)nc(N)nc1N1CCCC(c2nc(CCOC)no2)C1 (centres undefined)"
  units_of_measure: "%"
  cytotoxicity at 10 µM: 31.5
- molecule: "Cc1noc(C2CCCN(CC(=O)N3CCNC(=O)C3)C2)n1 (centres undefined)"
  units_of_measure: "%"
  cytotoxicity at 10 µM: -13
- molecule: "Cc1cnc(C(=O)N2CCOCC2C)cn1 (centres undefined)"
  units_of_measure: "%"
  cytotoxicity at 10 µM: -3.83
- molecule: "Cc1nc(Nc2ncccn2)cc(C2CCCN2CC(C)C)n1 (centres undefined)"
  units_of_measure: "%"
  cytotoxicity at 10 µM: 7.02

Returns the measured cytotoxicity at 10 µM for the input molecule. Input: CC(C)c1nccn1C1CCCN(C(=O)CCc2cscn2)C1 (centres undefined)
-7.81

// returns reported cytotoxicity at 10 µM for input CS(=O)(=O)NC1CC2(CCN(CC3CC3)CC2)Oc2ccccc21 (centres undefined)
-5.34

====

# assay_procedure: Toxicity liver stage against HepG2, at 10uM
# Format: cell-based
# Parameters: test concentration 10 uM, cell line HepG2-A16-CD81EGFP
# condition: human, HepG2-A16-CD81EGFP cells; read-out: INHIBITION
measurement_type: cytotoxicity at 10 µM (%)
Give the number; % is assumed, so skip it.

Example entries begin here.
- molecule: "O=C(NCC1(Sc2ccccc2)CC1)c1c[nH]nn1"
  measurement_type: "cytotoxicity at 10 µM"
  test_value: -17.9
- molecule: "COc1ccc(Cn2nc(C(N)=O)ccc2=O)c(Cl)c1"
  measurement_type: "cytotoxicity at 10 µM"
  test_value: 10.2
- molecule: "Cc1nc(CCCNC(=O)Nc2cc(F)cc(F)c2)n[nH]1"
  measurement_type: "cytotoxicity at 10 µM"
  test_value: -8.39
- molecule: "CCS(=O)(=O)N1CCCC2(CCCN2Cc2cccc(Cl)c2)C1 (configuration not stated)"
  measurement_type: "cytotoxicity at 10 µM"
  test_value: -143
- molecule: "CC(NC(=O)Nc1ccccc1CN1CCOCC1)c1nnc(N)s1 (configuration not stated)"
  measurement_type: "cytotoxicity at 10 µM"
  test_value: 4.84

What does the data say about its cytotoxicity at 10 µM? Entry: CC(C)C(C)NC(=O)c1ncn2c1CN(C)S(=O)(=O)c1ccccc1-2 (configuration not stated)
-132

Which measured cytotoxicity at 10 µM value corresponds to Cn1cccc1C(=O)N1CCC(c2nnc(Cn3ccnc3)n2C)CC1 ?
-114

Given CN(C)C(=O)NC1COC2(CCN(Cc3ccc(Cl)c(F)c3)CC2)C1 (configuration not stated) , state its recorded cytotoxicity at 10 µM.
-76.4

Please look up its cytotoxicity at 10 µM: CCNC(=O)CCC(=O)Nc1nc(C)c(Cc2ccc(F)cc2)s1
6.68

Which cytotoxicity at 10 µM is reported for this molecule? Cc1cccc(C(=O)N2CC[C@H]3C[C@@H](C)O[C@@H]3C2)n1
5.37

====

# assay_procedure: Toxicity liver stage against HepG2, at 10uM
# Type: cell-based
# Design: test concentration 10 uM, cell line HepG2-A16-CD81EGFP
# condition: human, HepG2-A16-CD81EGFP cells; read-out: INHIBITION
measurement_type: cytotoxicity at 10 µM (%)
Use % as the unit, but write only the number.

Please review the following examples before continuing.
- compound: "CC(C)c1nnc2n1CCN(CC(=O)N1CCc3sccc3C1)C2"
  measurement_type: "cytotoxicity at 10 µM"
  test_value: -10.4
- compound: "NC(=O)COc1ccc(CN2CCC3(CC2)[C@H](O)C[C@@H]3O)cc1Cl"
  measurement_type: "cytotoxicity at 10 µM"
  test_value: 3.76
- compound: "CCOCC(=O)Nc1cc(C)cnc1OC"
  measurement_type: "cytotoxicity at 10 µM"
  test_value: 4.04
- compound: "O=c1cc(CN2CCCC2)nc2n1CCCN(Cc1ccco1)C2"
  measurement_type: "cytotoxicity at 10 µM"
  test_value: 4.01
- compound: "COc1ccccc1NC(=O)NC1(c2noc(CN(C)C)n2)CCCC1"
  measurement_type: "cytotoxicity at 10 µM"
  test_value: -5.22
- compound: "Cc1n[nH]c(C)c1CCC(=O)NCC1COc2ccccc2C1 (centres undefined)"
  measurement_type: "cytotoxicity at 10 µM"
  test_value: -40.2
- compound: "CC(C)NC(=O)N1CC[C@@H](N(C)C)[C@@H]1Cc1ccccc1"
  measurement_type: "cytotoxicity at 10 µM"
  test_value: 9.82
- compound: "Cc1nc(NC(=O)c2nn(-c3ccc(F)cc3C)cc2O)n[nH]1"
  measurement_type: "cytotoxicity at 10 µM"
  test_value: -7.3
- compound: "O=c1[nH]c2c(c(=O)n1C1CCCCC1)CCC2NCc1ccccc1 (centres undefined)"
  measurement_type: "cytotoxicity at 10 µM"
  test_value: -5.43
- compound: "NC(=O)C1CCN(C(=O)CCn2c(C(F)(F)F)cc3cccnc32)CC1"
  measurement_type: "cytotoxicity at 10 µM"
  test_value: -23.7

So what's the measured cytotoxicity at 10 µM for this one? CC(C)n1cnc(-c2nc(C(=O)N3CCN(C)CC3)c3ccccn23)c1
8.88

// query cytotoxicity at 10 µM value for entry CN(Cc1ccco1)Cc1ccccc1CNC(=O)c1c[nH]nn1
-2.89

Return reported cytotoxicity at 10 µM; argument: Fc1cccc(CN2CCC3(CCN3c3ncccn3)C2)c1 (centres undefined)
15.3

Could you share which cytotoxicity at 10 µM value was measured for CCC(=O)N(C)C1CCN(Cc2ncc(C)c(OC)c2C)CC1 ?
-9.86

For the compound CC(C)NC(=O)[C@H]1CN(Cc2ccccc2)C[C@@H]1C(=O)c1ccccc1 , what cytotoxicity at 10 µM is on record?
7.84

Name the recorded cytotoxicity at 10 µM for CS(=O)(=O)N1CCOCC2(CCN(c3cnccn3)CC2)C1 .
-107

Source: ChEMBL document CHEMBL4513216
